biological target: α7 nAChR (Rattus norvegicus); assay: [3H]-MLA competition binding assay in rat brain membranes
Sequence (Q05941 23-502): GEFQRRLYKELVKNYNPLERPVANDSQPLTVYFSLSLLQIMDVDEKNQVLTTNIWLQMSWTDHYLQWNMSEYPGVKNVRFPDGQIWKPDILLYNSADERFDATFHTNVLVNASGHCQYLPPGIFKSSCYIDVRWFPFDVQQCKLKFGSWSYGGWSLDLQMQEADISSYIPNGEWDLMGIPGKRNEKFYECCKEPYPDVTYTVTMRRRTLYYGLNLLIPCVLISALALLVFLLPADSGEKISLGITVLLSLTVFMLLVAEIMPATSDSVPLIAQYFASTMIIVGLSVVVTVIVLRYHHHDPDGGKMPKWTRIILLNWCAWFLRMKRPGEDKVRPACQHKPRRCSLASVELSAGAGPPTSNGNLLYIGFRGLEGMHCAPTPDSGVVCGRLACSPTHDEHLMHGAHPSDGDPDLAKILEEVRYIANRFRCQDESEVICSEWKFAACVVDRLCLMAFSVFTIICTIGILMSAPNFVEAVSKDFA
Assignment: determine reported Ki for the given molecules.
Numbers only, in µM.

[
  {
    "structure_notation": "O=C(N[C@H]1CN2CCC1CC2)c1ccc(Oc2cccc(Cl)c2)cc1",
    "measurement_name": "Ki",
    "unit_text": "µM",
    "recorded_result": 1.59
  }
]

Go through the list and state Ki for each entry.
1. O=C(N[C@H]1CN2CCC1CC2)c1ccc(Oc2ccc(Cl)cc2)cc1
2. O=C(N[C@H]1CN2CCC1CC2)c1ccc(Oc2ccccc2)cc1

Output line:
1: 1.24; 2: 0.847

// input: 3 molecules below; output: Ki for each
1. O=C(N[C@H]1CN2CCC1CC2)c1ccc(C(=O)c2ccccc2)cc1
2. O=C(N[C@H]1CN2CCC1CC2)c1ccc(Sc2cccc(Cl)c2)cc1
3. COc1ccc(Oc2ccc(C(=O)N[C@H]3CN4CCC3CC4)cc2)cc1

Output line:
1. 1.58
2. 0.17
3. 0.414

For each of the molecules below, note its Ki.
1. O=C(N[C@H]1CN2CCC1CC2)c1ccc(Oc2ccc(F)cc2)cc1
2. O=C(N[C@H]1CN2CCC1CC2)c1ccc(Oc2ccc(O)cc2)cc1
3. CC(=O)Nc1ccc(Oc2ccc(C(=O)N[C@H]3CN4CCC3CC4)cc2)cc1

Output line:
0.91
0.278
0.27
